Test system: HCC-2998 colon
Assay: NCI-60 one-dose screen, 48 h (100 = growth as untreated, 0 = no growth, -100 = all killed)
Settings: 10 µM unless noted
Compounds without any hit were thinned out: in the full panel of roughly 83,000, 20% have a hit.
Readout: growth (%)
Quick reminder: number only, in %, skip the unit.

[[record]]
compound = "NC(=O)c1ccc[n+]([C@@H]2O[C@H](COP(=O)([O-])OP(=O)(O)OC[C@H]3O[C@@H](n4cnc5c(N)ncnc54)[C@H](O)[C@@H]3O)[C@@H](O)[C@H]2O)c1"
units_text = "%"
assay_result = 100

[[record]]
compound = "CC1=NOC(=O)/C1=C\\c1ccc(O)cc1"
units_text = "%"
assay_result = 109

[[record]]
compound = "Cc1ccc(NS(=O)(=O)c2ccc3c(c2)C(=O)CC(c2ccc(C(=O)C(C)C)cc2)N3)cc1C (stereo not drawn)"
units_text = "%"
assay_result = 89.9


Problem: Find the recorded growth belonging to Cc1cc(C(=O)c2ccccc2)c(C)c2c1[nH]c1ccc(Cl)cc12 and report it.
Solution: 21.8

Problem: Again, but for CN(C)CCC=C1c2ccccc2C(C)(C)c2ccccc21
Solution: 10.4

Problem: Again, but for C=C(C)[C@@H]1CC[C@]2(C(=O)NC3CCCCC3)CC[C@]3(C)[C@H](CC[C@@H]4[C@@]5(C)CCC(=O)C(C)(C)[C@@H]5CC[C@]43C)[C@@H]12
Solution: 107

Problem: Again, but for CCCCc1ccc(Nc2ccc(Nc3ccc(CCCC)cc3S(=O)(=O)O)c3c2C(=O)c2ccccc2C3=O)c(S(=O)(=O)O)c1
Solution: 117

Problem: Again, but for CCOC(=O)C/C(C)=N\NC(=O)c1ccncc1
Solution: 98.7

---

Test system: MALME-3M melanoma
Assay: NCI-60 one-dose screen, 48 h (100 = growth as untreated, 0 = no growth, -100 = all killed)
Settings: 10 µM unless noted
About 83,000 compounds went through this panel and 20% of them were active in at least one assay; those are over-represented in the sample as a whole.
Readout: growth (%)
Quick reminder: number only, in %, skip the unit.

[[record]]
compound = "COc1ccc2c(c1)[nH]c(=O)c1c3cccnc3cn21"
target_or_system = "MALME-3M melanoma"
units_text = "%"
assay_result = 62.6

[[record]]
compound = "Cc1ccc(S(=O)(=O)NCC[C@@H]2C[C@H]2c2cc3ccccc3s2)cc1"
target_or_system = "MALME-3M melanoma"
units_text = "%"
assay_result = 99.8

[[record]]
compound = "Cc1ccc(C(=O)COc2cccc(/C=C3\\Oc4ccccc4C3=O)c2)cc1"
target_or_system = "MALME-3M melanoma"
units_text = "%"
assay_result = 106

[[record]]
compound = "O=C(CCc1nnc(CN(c2ccccc2)c2ccccc2)o1)c1nc2ccccc2[nH]1"
target_or_system = "MALME-3M melanoma"
units_text = "%"
assay_result = 94.3

[[record]]
compound = "COc1cc(-c2nn(-c3ccccc3)cc2-c2ccnc(NCCNS(=O)(=O)c3ccc(Cl)cc3)n2)ccc1Cl"
target_or_system = "MALME-3M melanoma"
units_text = "%"
assay_result = 70

[[record]]
compound = "Cc1ccc2c(c1)Sc1c(ccc3ccccc13)N2"
target_or_system = "MALME-3M melanoma"
units_text = "%"
assay_result = 90.7

[[record]]
compound = "N#CC1=C(/N=C/c2ccccc2)Oc2c(ccc3ccccc23)C1c1ccccc1 (stereo not given)"
target_or_system = "MALME-3M melanoma"
units_text = "%"
assay_result = 49.2

[[record]]
compound = "NS(=O)(=O)c1cnccc1Sc1ccncc1S(N)(=O)=O"
target_or_system = "MALME-3M melanoma"
units_text = "%"
assay_result = 91.1


Problem: Find the recorded growth belonging to COc1ccc(-c2nc(SCCC(C)C)nc(N/N=C\c3cccc(Cl)c3)c2C#N)cc1 and report it.
Solution: 111

Problem: Again, but for O=C(c1ccccc1)c1c(/C=C/c2ccccc2)nc2ccccc2c1/C=C/c1ccc(Br)cc1
Solution: 106

Where these numbers come from: PubChem BioAssay (NCI)
